Test: NCI Yeast Anticancer Drug Screen. Data for the sgs1 strain (AID 173);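 further: 0% = growth of vehicle-only control cultures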
Conditions: S. cerevisiae sgs1 mutant, at 11.0 µM
This is part of a sample that, as a whole, favours compounds with a hit. Of some 79,000 tested, about 15% had one in any assay. Calls of active or inactive are those of the source. No stated cut-off is given here; in the data, active means growth inhibition above about 70%; inactive means the rest.
Can you answer with just one of these options? Yes (active), No (inactive)

Solved cases (4 shown):
INSERT INTO assay_data (compound, classassignment) VALUES
  ('CCN(CC)CCBr', 'No'),
  ('COc1cc(C2c3cc4c(cc3[C@@H](Nc3ccc(N)cc3)C3COC(=O)[C@H]23)OCO4)cc(OC)c1O (stereo not given in full)', 'Yes'),
  ('COc1ccc([N+]2=NC(c3ccc([N+](=O)[O-])cc3)=NN(c3ccccc3)C2)cc1', 'No'),
  ('CC(C)CC(NC(=O)C(N)C(C)C)C(=O)NC(CCCCN)C(=O)Nc1ccc(N(CCCl)CCCl)cc1 (stereo not given)', 'No');

Please indicate how the test categorized Cc1ccc2c(c1N)C(=O)c1ccccc1C2=O .
No

----------
Measured growth inhibition of individual entries
Assay: NCI Yeast Anticancer Drug Screen. Data for the mlh1 rad18 strain (AID 175)
Settings: S. cerevisiae mlh1 rad18 strain growth inhibition; at 50.0 µM (retest, dose inferred, filed as 5.0); active compounds read high
This is part of a sample that, as a whole, favours compounds with a hit. Of some 79,000 tested, about 15% had one in any assay.
Note: unit % is implicit; provide only the numeric part.

Please look up its growth inhibition: CSC(=Nc1ccccc1)N(c1ccccc1)c1nc(=[N+](C)C)ss1
98

Okay, and CCCC[CH2][Pb]([CH2]CCCC)([CH2]CCCC)[O]C(C)=O ?
93

Okay, and [O]=[Sb][c]1ccc(Cl)cc1 ?
35

Okay, and OC(c1ccc(Br)cc1)C(Cl)(Cl)Cl (configuration not stated) ?
99

Okay, and O=c1oc2ccccc2c(O)c1C(c1ccco1)c1c(O)c2ccccc2oc1=O ?
19

----------
Assay: NCI Yeast Anticancer Drug Screen. Data for the rad52 strain (AID 147);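 further: 0% = growth of vehicle-treated control cultures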
Conditions: S. cerevisiae rad52 mutant growth inhibition; at 100.0 µM
About 79,000 compounds went through this panel and 15% of them were active in at least one assay; those are over-represented in the sample as a whole. Calls of active or inactive are those of the source. Rule as the data show it: active = growth inhibition above about 70%; inactive = the rest.
Can you answer with just one of these options? yes (active), no (inactive)

Solved cases (6 shown):
INSERT INTO assay_data (compound, classassignment) VALUES
  ('CC(C)CC(NC(=O)C(N)C(C)C)C(=O)NC(CCCCN)C(=O)Nc1ccc(N(CCCl)CCCl)cc1 (stereo not given)', 'no'),
  ('O=C(/C=C(\c1ccccc1)N1CC1)c1ccccc1', 'yes'),
  ('COC(COC(=O)N1CCN(C=O)CC1)C1=C(N2CC2)C(=O)C(C)=C(N2CC2)C1=O (stereo not given)', 'yes'),
  ('CNC(=O)OCC1C2=C(C(=O)C(C)=C(N)C2=O)N2CC3C(N3C)C12OC (stereo not given)', 'yes'),
  ('CCC1(O)C(=O)OCc2c1cc1n(c2=O)Cc2cc3ccccc3nc2-1 (stereo not given)', 'yes'),
  ('CN(C)CCSC1=Nc2ccc(Cl)cc2C(c2ccccc2Cl)=NC1', 'no');

Please indicate how the test categorized CC1=C[C@H]2O[C@@H]3C[C@H]4OC(=O)/C=C\C=C\C(C(C)O)OCC(O)C(C)CC(=O)OC[C@@]2(C[C@@H]1O)[C@]4(C)[C@@]31CO1 (stereo not given in full) .
yes

Okay, and CCCCN(CCCC)CC(C(C)=O)C(c1ccccc1)c1c(O)c2ccccc2oc1=O (stereo not given) ?
no

Okay, and COc1cc(C2c3cc4c(cc3[C@@H](Nc3ccc(N)cc3)C3COC(=O)[C@H]23)OCO4)cc(OC)c1O (stereo not given in full) ?
yes

Okay, and O=C1C2CC(Cl)C(SSC3CC4C(=O)N(SC(Cl)(Cl)C(Cl)Cl)C(=O)C4CC3Cl)CC2C(=O)N1SC(Cl)(Cl)C(Cl)Cl (stereo not given) ?
yes

Okay, and Oc1c(Br)cc(Br)cc1Br ?
yes

Okay, and OC1CCCC2CCC[N-]C12.OC1CCCC2CCC[N-]C12.[O]=[V][OH] (stereo not given) ?
yes

Okay, and Cn1cnc(N)c1C(=N)[Se] ?
yes

Okay, and C/C(=N\NC(N)=O)C(CN1CCOCC1)C(c1ccccc1)c1c(O)c2ccccc2oc1=O (stereo not given) ?
no

Okay, and COC(=O)c1c(C)ccc2c(O)c3c(cc12)C(=O)c1c2c(cc(O)c1C3=O)C1(C)OC(C)(O2)C(O)C(N(C)C)C1O (stereo not given) ?
yes

Okay, and Nc1ccccc1C(=O)OCCc1ccccc1 ?
yes

Okay, and CCC1(O)C(=O)OCc2c1cc1n(c2=O)Cc2cc3cc(Cl)ccc3nc2-1 (stereo not given) ?
yes

Okay, and Cc1cccc(NC(=O)CBr)c1 ?
yes

Okay, and C[C@]12CCc3nonc3C1CC[C@@H]1C2CC[C@]2(C)C(=O)CCC12 (stereo not given in full) ?
no

Okay, and COC(=O)C1C2c3ccccc3C(c3ccccc32)C1C(=O)OC (stereo not given) ?
no

----------
Assay: NCI Yeast Anticancer Drug Screen. Data for the mec2-1 strain (AID 157)
Conditions: S. cerevisiae mec2-1 strain, at 50.0 µM (retest, dose inferred, filed as 5.0), active compounds read high
About 79,000 compounds went through this panel and 15% of them were active in at least one assay; those are over-represented in the sample as a whole.
Category scheme (growth inhibition): label 0 (below 10%), label 1 (10% to below 60%), label 2 (60% or more)

INSERT INTO measurements (compound, classassignment) VALUES
  ('CCOP(=O)(Cc1cccc2ccccc12)OCC', 'label 0'),
  ('O=[N+]([O-])c1c(Cl)sc(Cl)c1[N+](=O)[O-]', 'label 2'),
  ('CCCNC(=O)Nc1ccc2c(c1)Cc1cc(N(CCCl)CCCl)ccc1-2', 'label 1'),
  ('Cc1cc[n+](C2=C(Nc3cccc(C(F)(F)F)c3)C(=O)c3ccccc3C2=O)cc1', 'label 1'),
  ('N=C(N)c1ccccc1', 'label 1');

Dear colleague, I would appreciate it if you could identify the bin for C[C@]12CC[C@H]3[C@@H](C[C@@H](F)C4=CC(=O)CC[C@@]43C)[C@@H]1CC[C@@H]2O and reply at your convenience.
label 1

Okay, and CC(Cc1ccccc1)N(C)Cc1nc(C2CCC([N+](=O)[O-])O2)no1 (stereo unspecified) ?
label 2

Okay, and C=C[C@H]1CN2CC[C@H]1C[C@@H]2[C@@H](O)c1ccnc2ccccc12 ?
label 0

Okay, and COc1cc(C=Nc2cc(Br)c(OC)c(Br)c2)ccc1N(CCCl)CCCl ?
label 2

Okay, and COC(=O)C(C)(C)[n+]1c(C)cc(C)cc1C ?
label 0

----------
Assay: NCI Yeast Anticancer Drug Screen. Data for the mec2-1 strain (AID 157)
Conditions: S. cerevisiae mec2-1 strain, at 5.0 µM (retest, dose inferred, filed as 0.5), active compounds read high
About 79,000 compounds went through this panel and 15% of them were active in at least one assay; those are over-represented in the sample as a whole.
Measured growth inhibition of individual entries
Note: unit % is implicit; provide only the numeric part.

The following molecules have reported results that may help.
INSERT INTO results (molecule, quantityname, endpointvalue) VALUES
  ('Cn1cnc(N)c1C(=N)[Se]', 'growth inhibition', -46),
  ('CC1(C)CCC(C)(C)c2cc(Cl)c(O)cc21', 'growth inhibition', 4),
  ('CN(C)C(=S)[S][Sb]([c]1ccccc1)[c]1ccccc1', 'growth inhibition', 99);

Please look up its growth inhibition: CCCCCCCCCCCCNCCc1ccccc1
99

Okay, and Oc1c(Cl)c(Cl)c(Cl)c(Cl)c1Cl.[Cu+2] ?
18

Okay, and S=C=Nc1cccc(Cl)c1 ?
-7

Okay, and Br[C](Br)(Br)[Hg][c]1ccccc1 ?
100

Okay, and O=c1oc2ccccc2c(O)c1C(c1ccc2ccccc2c1)c1c(O)c2ccccc2oc1=O ?
17

Okay, and NC1=NCC(c2ccc(Cl)cc2)O1 (configuration not stated) ?
-51

Okay, and C[C@]12CC/C(=N\NC(=O)c3ccncc3)C[C@@H]1CC[C@@H]1[C@@H]2CC[C@]2(C)[C@@H](O)CC[C@@H]12 ?
5

Okay, and C/C(=N\NC(N)=O)C(CN1CCOCC1)C(c1ccccc1)c1c(O)c2ccccc2oc1=O (configuration not stated) ?
13

Okay, and COC12C(COC(C)=O)C3=C(C(=O)C(C)=C(N4CCCCC4)C3=O)N1CC1NC12 (configuration not stated) ?
96

Okay, and Cc1c(N)nc([C@H](CC(N)=O)NC[C@H](N)C(N)=O)nc1C(=O)N[C@H](C(=O)N[C@H](C)[C@@H](O)CC(=O)N[C@H](C(=O)NC(O[C@@H]1O[C@@H](C)[C@@H](N)[C@@H](O)[C@H]1O)C(O)c1nc(-c2nc(C(=O)NCCCCN)cs2)cs1)[C@@H](C)O)[C@@H](O[C@@H]1O[C@@H](CO)[C@@H](O)[C@H](O)[C@@H]1O[C@H]1O[C@H](CO)[C@@H](O)[C@H](OC(N)=O)[C@@H]1O)c1c[nH]cn1 (some centres not stated) ?
98

Okay, and O=[N+]([O-])c1ccc(SC2CCCCCCC2Cl)c([N+](=O)[O-])c1 (configuration not stated) ?
8

Okay, and O=c1[nH]cc(Cn2cnc3ncccc3c2=O)c(=O)[nH]1 ?
-5

Okay, and Clc1c(CI)ccc(CI)c1Cl ?
60

Okay, and CCC(C)N1CN(c2ccccc2)C2(CCN(CCCC3(c4ccc(F)cc4)OCCO3)CC2)C1=O (configuration not stated) ?
-7

Okay, and CC(CN1CCCCCCC1)C(C#N)(c1ccccc1)c1ccccc1 (configuration not stated) ?
3

Okay, and OCC(O)C(O)CO (configuration not stated) (tested in a mixture with another compound) ?
-47

Okay, and COc1ccc(CC2C(=O)NC(C)C(=O)N(C)C3C(=O)N(C)C(Cc4ccc(O)c(c4)Oc4ccc(cc4)C3O)C(=O)NC(C)C(=O)NC(C)C(=O)N2C)cc1 (configuration not stated) ?
29

Okay, and CC(=O)[O-].[Zn].c1ccc(/C(=N\Nc2ccccn2)c2ccccn2)cc1 ?
37

Okay, and NC(=O)CNCc1ccc([As]=O)cc1 (configuration not stated) ?
3
